The reported numbers originate from patent US20070049564A1.

- Tested on: Salmonella spp. GC 235
- Assay Notes: MIC, broth microdilution
- Stated Conditions: Salmonella, SPP.GC235, Salmonella spp. GC 235; Mouse Serum pre-incubation
List of MIC values.
Give the value, in units of µg/mL, as a plain number.

Query: Requested read-out: MIC. Entry: CCCN(CC(=O)Nc1cc(N(C)C)c2c(c1O)C(=O)C1=C(O)[C@]3(O)C(=O)C(C(N)=O)=C(O)[C@@H](N(C)C)[C@@H]3C[C@@H]1C2)C(=O)OCOC(=O)c1ccc(C)cc1
Result: 2

Query: Sample CCCN(CC(=O)Nc1cc(N(C)C)c2c(c1O)C(=O)C1=C(O)[C@]3(O)C(=O)C(C(N)=O)=C(O)[C@@H](N(C)C)[C@@H]3C[C@@H]1C2)C(=O)OCOC(=O)C(C)(C)C — what was its MIC?
Result: 1

Query: Bench note: what MIC did CCCCN(CC(=O)Nc1cc(N(C)C)c2c(c1O)C(=O)C1=C(O)[C@]3(O)C(=O)C(C(N)=O)=C(O)[C@@H](N(C)C)C3CC1C2)C(=O)OCOC(=O)C(C)C (some centres unmarked) show?
Result: 1

Consider now this further compound.
Query: Can you look up the measured MIC of CCCCN(CC(=O)Nc1cc(N(C)C)c2c(c1O)C(=O)C1=C(O)[C@]3(O)C(=O)C(C(N)=O)=C(O)[C@@H](N(C)C)[C@@H]3C[C@@H]1C2)C(=O)OCOC(=O)C(C)(C)C for me?
Result: 2

----------
- Test system: E. faecalis GC 2265
- Assay Notes: MIC, broth microdilution
- Stated Conditions: Enterococcus faecalis, GC2265, read-out: MINIMAL INHIBITORY CONCENTRATION MIC, pre-incubated in Water
Measured MIC by item
// note: answer is a bare numeric in mg/L

// solved cases for MIC follow
Query: What value of MIC has been reported for the following compound? CCC(C)(C)C(=O)OCOC(=O)N(CC(=O)Nc1cc(N(C)C)c2c(c1O)C(=O)C1=C(O)[C@]3(O)C(=O)C(C(N)=O)=C(O)[C@@H](N(C)C)[C@@H]3C[C@@H]1C2)C(C)(C)C [Example 44]
Result: 4

Query: Consider the compound CCCN(CC(=O)Nc1cc(N(C)C)c2c(c1O)C(=O)C1=C(O)[C@]3(O)C(=O)C(C(N)=O)=C(O)[C@@H](N(C)C)[C@@H]3C[C@@H]1C2)C(=O)OCOC(=O)c1ccc(-c2ccccc2)cc1 [Example 24] and give its measured MIC.
Result: 32

Query: Find the recorded MIC belonging to CC(C)C(=O)OCOC(=O)N(CC(=O)Nc1cc(N(C)C)c2c(c1O)C(=O)C1=C(O)[C@]3(O)C(=O)C(C(N)=O)=C(O)[C@@H](N(C)C)[C@@H]3C[C@@H]1C2)C(C)(C)C [Example 45] and report it.
Result: 4

Query: // returns reported MIC for input CCCN(CC(=O)Nc1cc(N(C)C)c2c(c1O)C(=O)C1=C(O)[C@]3(O)C(=O)C(C(N)=O)=C(O)[C@@H](N(C)C)[C@@H]3C[C@@H]1C2)C(=O)OCOC(=O)c1cc(C)cc(C)c1 [Example 26]
Result: 8

Query: Record request: MIC value, item CN(C)c1cc(NC(=O)CN(C(=O)OCOC(=O)c2ccc(C(C)(C)C)cc2)C(C)(C)C)c(O)c2c1C[C@H]1C[C@H]3[C@H](N(C)C)C(O)=C(C(N)=O)C(=O)[C@@]3(O)C(O)=C1C2=O [Example 43]
Result: 32

New cases:
Query: Requested field: MIC. Item: CN(C)c1cc(NC(=O)CN(C(=O)OCOC(=O)CC(C)(C)C)C(C)(C)C)c(O)c2c1C[C@H]1C[C@H]3[C@H](N(C)C)C(O)=C(C(N)=O)C(=O)[C@@]3(O)C(O)=C1C2=O [Example 42]
Result: 8
